// IC50 lookup, one value per entry
Molecular target: Sodium-dependent dopamine transporter (Homo sapiens, UniProt Q01959)
Sequence (Q01959 whole entry): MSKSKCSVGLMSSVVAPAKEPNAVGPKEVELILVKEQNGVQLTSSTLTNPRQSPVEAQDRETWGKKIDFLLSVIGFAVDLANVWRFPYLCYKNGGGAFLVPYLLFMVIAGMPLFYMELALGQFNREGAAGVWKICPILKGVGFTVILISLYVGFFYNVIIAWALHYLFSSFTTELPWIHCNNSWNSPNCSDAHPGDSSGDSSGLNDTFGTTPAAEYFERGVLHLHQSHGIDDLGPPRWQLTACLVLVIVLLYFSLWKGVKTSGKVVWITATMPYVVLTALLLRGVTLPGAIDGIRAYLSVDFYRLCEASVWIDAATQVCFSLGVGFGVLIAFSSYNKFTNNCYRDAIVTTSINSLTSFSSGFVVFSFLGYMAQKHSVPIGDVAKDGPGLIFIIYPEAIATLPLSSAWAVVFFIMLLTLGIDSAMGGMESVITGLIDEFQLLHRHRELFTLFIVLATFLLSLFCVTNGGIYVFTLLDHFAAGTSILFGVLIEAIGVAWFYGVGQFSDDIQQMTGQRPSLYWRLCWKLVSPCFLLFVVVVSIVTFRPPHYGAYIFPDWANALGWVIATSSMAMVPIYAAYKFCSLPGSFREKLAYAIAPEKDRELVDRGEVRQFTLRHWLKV
Assay: Ability to inhibit human dopamine uptake by the human dopamine transporter in EM4 cells stably infected with Flag HA-hDAT
MEASURED PARAMETER: IC50 (nM)

- COC(=O)[C@@H]1C2CCC(C[C@@H]1c1ccc(Cl)c(Cl)c1)N2C (some centres not stated): 1.1
- COC(=O)[C@@H]1C2CCC(C[C@@H]1c1ccc(Cl)c(Cl)c1)N2 (some centres not stated): 1.4
